# Test system: MCF7
# measurement-notes: Cytotoxicity against human MCF7 cells assessed as growth inhibition after 48 hrs by sulforhodamine B assay
# Assay type: functional
# measurement-parameters: MCF7, 48 h
observed-property: GI50 (µM)
Number only, in µM; omit the unit.

COc1ccc(-c2cc(/C=C/C(=O)c3ccc(N)cc3)[nH]n2)cc1OC
2.28
COc1ccc(C(=O)/C=C/c2cc(-c3ccc(OC)c(OC)c3)n[nH]2)cc1OC
0.937
COc1ccc(C(=O)/C=C/c2cc(-c3ccc4c(c3)OCO4)n[nH]2)cc1OC
3.27

Return reported GI50; argument: COc1ccc(-c2cc(/C=C/C(=O)c3cc(OC)c(OC)c(OC)c3)[nH]n2)cc1OC 1.06

----------
Catalogue of compounds with associated growth at 0.01 µM
# Tested on: SN12C
# measurement-notes: Cytotoxicity against human SN12C cells assessed as cell growth at 0.01 uM after 48 hrs by sulforhodamine B assay relative to control
# Format: functional
# measurement-parameters: read-out: Activity
Number only, in %; omit the unit.

Here's what some known entries look like.
COc1ccc(-c2cc(/C=C/C(=O)c3ccc(N)cc3)[nH]n2)cc1
93
COc1cc(C(=O)/C=C/c2cc(-c3ccc4c(c3)OCO4)n[nH]2)cc(OC)c1OC
98
COc1ccc(C(=O)/C=C/c2cc(-c3cc(OC)c(OC)c(OC)c3)n[nH]2)cc1
99
COc1ccc(-c2cc(/C=C/C(=O)c3cc(OC)c(OC)c(OC)c3)[nH]n2)cc1OC
98

Return reported growth at 0.01 µM; argument: COc1cc2c(cc1OC)C(=O)/C(=C/c1cc(-c3ccc4c(c3)OCO4)n[nH]1)C2 95

Follow-up item: COc1cc(-c2cc(/C=C/C(=O)c3ccc(Cl)c(Cl)c3)[nH]n2)cc(OC)c1OC 98

----------
# Tested on: Hs-578T
# measurement-notes: Cytotoxicity against human Hs 578T cells assessed as cell growth at 100 uM after 48 hrs by sulforhodamine B assay relative to control
# Format: functional
# measurement-parameters: read-out: Activity
Catalogue of compounds with associated growth at 100 µM
Number only, in %; omit the unit.

COc1ccc(C(=O)/C=C/c2cc(-c3cc(OC)c(OC)c(OC)c3)n[nH]2)cc1OC
-15
COc1ccc(-c2cc(/C=C/C(=O)c3cc(OC)c(OC)c(OC)c3)[nH]n2)cc1OC
-16
COc1cc2c(cc1OC)C(=O)/C(=C/c1cc(-c3ccc4c(c3)OCO4)n[nH]1)C2
-15

Here is the next item to consider.
Return reported growth at 100 µM; argument: COc1cc(C(=O)/C=C/c2cc(-c3cc(OC)c(OC)c(OC)c3)n[nH]2)cc(OC)c1OC -4

----------
# System: TK-10
# measurement-notes: Cytotoxicity against human TK10 cells assessed as cell growth at 1 uM after 48 hrs by sulforhodamine B assay relative to control
# Assay type: functional
# measurement-parameters: TK-10, 48 h, read-out: Activity
observed-property: growth at 1 µM (%)
Number only, in %; omit the unit.

Here's what some known entries look like.
COc1ccc(-c2cc(/C=C/C(=O)c3ccc(OC)c(OC)c3)[nH]n2)cc1
103
COc1ccc(C(=O)/C=C/c2cc(-c3ccc(OC)c(OC)c3)n[nH]2)cc1OC
106
COc1cc(-c2cc(/C=C/C(=O)c3ccc(N)cc3)[nH]n2)cc(OC)c1OC
102
COc1cc2c(cc1OC)C(=O)/C(=C/c1cc(-c3ccc4c(c3)OCO4)n[nH]1)C2
106

Here is the next item to consider.
Return reported growth at 1 µM; argument: COc1ccc(-c2cc(/C=C/C(=O)c3ccc(N)cc3)[nH]n2)cc1 81

----------
Catalogue of molecules with associated growth at 0.01 µM
# Test system: IGROV-1
# measurement-notes: Cytotoxicity against human IGROV1 cells assessed as cell growth at 0.01 uM after 48 hrs by sulforhodamine B assay relative to control
# Type: functional
# measurement-parameters: IGROV-1, 48 h, read-out: Activity
Number only, in %; omit the unit.

COc1ccc(C(=O)/C=C/c2cc(-c3ccc(OC)c(OC)c3)n[nH]2)cc1OC
104

Return reported growth at 0.01 µM; argument: COc1cc(C(=O)/C=C/c2cc(-c3ccc4c(c3)OCO4)n[nH]2)cc(OC)c1OC 101

Follow-up item: COc1cc(-c2cc(/C=C/C(=O)c3ccc(Cl)c(Cl)c3)[nH]n2)cc(OC)c1OC 97

Follow-up item: COc1ccc(C(=O)/C=C/c2cc(-c3ccc4c(c3)OCO4)n[nH]2)cc1OC 100

Follow-up item: COc1ccc(-c2cc(/C=C/C(=O)c3cc(OC)c(OC)c(OC)c3)[nH]n2)cc1OC 103

Follow-up item: COc1ccc(C(=O)/C=C/c2cc(-c3cc(OC)c(OC)c(OC)c3)n[nH]2)cc1 101

Follow-up item: COc1ccc(-c2cc(/C=C/C(=O)c3ccc(N)cc3)[nH]n2)cc1OC 106

----------
# System: HL-60(TB)
# measurement-notes: Cytotoxicity against human HL-60(TB) cells assessed as cell growth at 0.01 uM after 48 hrs by sulforhodamine B assay relative to control
# Assay type: functional
# measurement-parameters: HL-60, 48 h, read-out: Activity
observed-property: growth at 0.01 µM (%)
Number only, in %; omit the unit.

COc1cc(C(=O)/C=C/c2cc(-c3ccc4c(c3)OCO4)n[nH]2)cc(OC)c1OC
99
COc1ccc(-c2cc(/C=C/C(=O)c3ccc(N)cc3)[nH]n2)cc1OC
104
COc1cc2c(cc1OC)C(=O)/C(=C/c1cc(-c3ccc4c(c3)OCO4)n[nH]1)C2
90

Return reported growth at 0.01 µM; argument: COc1cc(-c2cc(/C=C/C(=O)c3ccc(F)c(F)c3)[nH]n2)cc(OC)c1OC 102

Follow-up item: COc1ccc(C(=O)/C=C/c2cc(-c3ccc4c(c3)OCO4)n[nH]2)cc1OC 97

Follow-up item: COc1cc(-c2cc(/C=C/C(=O)c3ccc(Cl)c(Cl)c3)[nH]n2)cc(OC)c1OC 105

----------
# System: SF-539
# measurement-notes: Cytotoxicity against human SF539 cells assessed as cell growth at 1 uM after 48 hrs by sulforhodamine B assay relative to control
# Type: functional
# measurement-parameters: SF-539, 48 h, read-out: Activity
observed-property: growth at 1 µM (%)
Number only, in %; omit the unit.

Here's what some known entries look like.
COc1cc(-c2cc(/C=C/C(=O)c3ccc(N)cc3)[nH]n2)cc(OC)c1OC
69
COc1ccc(-c2cc(/C=C/C(=O)c3cc(OC)c(OC)c(OC)c3)[nH]n2)cc1OC
17
COc1ccc(-c2cc(/C=C/C(=O)c3ccc(N)cc3)[nH]n2)cc1
72

Item COc1ccc(C(=O)/C=C/c2cc(-c3cc(OC)c(OC)c(OC)c3)n[nH]2)cc1 with SF-539 - growth at 1 µM? 87

Follow-up item: COc1cc2c(cc1OC)C(=O)/C(=C/c1cc(-c3ccc4c(c3)OCO4)n[nH]1)C2 67

----------
Catalogue of compounds with associated growth at 10 µM
# Test system: A549
# measurement-notes: Cytotoxicity against human A549/ATCC cells assessed as cell growth at 10 uM after 48 hrs by sulforhodamine B assay relative to control
# Format: functional
# measurement-parameters: A549, 48 h, read-out: Activity
Number only, in %; omit the unit.

Return reported growth at 10 µM; argument: COc1ccc(-c2cc(/C=C/C(=O)c3ccc(OC)c(OC)c3)[nH]n2)cc1 -23

Follow-up item: COc1ccc(C(=O)/C=C/c2cc(-c3cc(OC)c(OC)c(OC)c3)n[nH]2)cc1 -15

Follow-up item: COc1cc(-c2cc(/C=C/C(=O)c3ccc(Cl)c(Cl)c3)[nH]n2)cc(OC)c1OC 68

Follow-up item: COc1cc(-c2cc(/C=C/C(=O)c3ccc(N)cc3)[nH]n2)cc(OC)c1OC -15

----------
# System: SF-539
# measurement-notes: Cytotoxicity against human SF539 cells assessed as growth inhibition after 48 hrs by sulforhodamine B assay
# Assay type: functional
# measurement-parameters: SF-539, 48 h
Catalogue of compounds with associated log10 TGI
Please be aware that the numbers have been log10-transformed from TGI in µM.

Here's what some known entries look like.
COc1ccc(-c2cc(/C=C/C(=O)c3cc(OC)c(OC)c(OC)c3)[nH]n2)cc1OC
0.17
COc1cc2c(cc1OC)C(=O)/C(=C/c1cc(-c3ccc4c(c3)OCO4)n[nH]1)C2
0.41
COc1ccc(C(=O)/C=C/c2cc(-c3ccc4c(c3)OCO4)n[nH]2)cc1OC
0.65
COc1ccc(-c2cc(/C=C/C(=O)c3ccc(N)cc3)[nH]n2)cc1
0.54
COc1ccc(-c2cc(/C=C/C(=O)c3ccc(OC)c(OC)c3)[nH]n2)cc1
0.42

Here is the next item to consider.
Return reported log10 TGI; argument: COc1cc(-c2cc(/C=C/C(=O)c3ccc(F)c(F)c3)[nH]n2)cc(OC)c1OC 1.25

Entry source: ChEMBL document CHEMBL4138123
